Could you please report measured abundance fitness for the items listed next?
B1: Chromodomain-helicase-DNA-binding protein 4, residues 444 to 496; numbered along this chain, Q14839 (parent)
chain: EDDHHMEFCRVCKDGGELLCCDTCPSSYHIHCLNPPLPEIPNGEWLCPRCTCP

# Variants of: B1
# Measurement protocol: abundance fitness (aPCA) (normalised: wild type 0, dead -1); higher = more abundant; growth selection in yeast, the domain comes from the species named
# Assay setup: Homo sapiens
// no unit string in output, number only

Exercise: Please report the recorded abundance fitness for S26L .
Key: -0.088

Exercise: Please report the recorded abundance fitness for D22K .
Key: 0.129

Exercise: Please report the recorded abundance fitness for I40Q .
Key: 0.01

Exercise: Please report the recorded abundance fitness for P35K .
Key: -0.199

Exercise: Please report the recorded abundance fitness for D3C .
Key: 0.27

Exercise: Please report the recorded abundance fitness for E7C .
Key: -0.15

Exercise: Please report the recorded abundance fitness for M6I .
Key: -0.021

Exercise: Please report the recorded abundance fitness for G16N .
Key: -0.186

Exercise: Please report the recorded abundance fitness for P25L .
Key: -0.163

Exercise: Please report the recorded abundance fitness for P38S .
Key: -0.075

Exercise: Please report the recorded abundance fitness for P36L .
Key: -0.458

Exercise: Please report the recorded abundance fitness for P41F .
Key: -0.06

Exercise: Please report the recorded abundance fitness for L18E .
Key: -0.744

Exercise: Please report the recorded abundance fitness for E44C .
Key: -0.21

Exercise: Please report the recorded abundance fitness for I40R .
Key: 0.151

Exercise: Please report the recorded abundance fitness for P35S .
Key: -0.261

Exercise: Please report the recorded abundance fitness for G16M .
Key: -0.579

Exercise: Please report the recorded abundance fitness for L18P .
Key: -1.07

Exercise: Please report the recorded abundance fitness for K13Y .
Key: -0.375

Exercise: Please report the recorded abundance fitness for D22N .
Key: -0.085

Exercise: Please report the recorded abundance fitness for G16K .
Key: -0.143

Exercise: Please report the recorded abundance fitness for T23I .
Key: -0.042

Exercise: Please report the recorded abundance fitness for G43M .
Key: -0.195

Exercise: Please report the recorded abundance fitness for C47V .
Key: -0.605

Exercise: Please report the recorded abundance fitness for P41L .
Key: -0.228

Exercise: Please report the recorded abundance fitness for C52H .
Key: 0.096

Exercise: Please report the recorded abundance fitness for G15Q .
Key: -0.126

Exercise: Please report the recorded abundance fitness for P36F .
Key: -0.604

Exercise: Please report the recorded abundance fitness for L37F .
Key: -0.271

Exercise: Please report the recorded abundance fitness for H29A .
Key: -0.748

Exercise: Please report the recorded abundance fitness for P48F .
Key: -0.717

Exercise: Please report the recorded abundance fitness for H4Q .
Key: -0.058

Exercise: Please report the recorded abundance fitness for D2K .
Key: 0.378

Exercise: Please report the recorded abundance fitness for K13A .
Key: 0.085

Exercise: Please report the recorded abundance fitness for H5T .
Key: 0.019

Exercise: Please report the recorded abundance fitness for P25F .
Key: -0.167

Exercise: Please report the recorded abundance fitness for N42K .
Key: 0.081

Exercise: Please report the recorded abundance fitness for G43H .
Key: -0.13

Exercise: Please report the recorded abundance fitness for C32D .
Key: -0.68

Exercise: Please report the recorded abundance fitness for G16T .
Key: -0.432

Exercise: Please report the recorded abundance fitness for I40S .
Key: -0.023

Exercise: Please report the recorded abundance fitness for H4D .
Key: 0.125

Exercise: Please report the recorded abundance fitness for C32K .
Key: -0.933

Exercise: Please report the recorded abundance fitness for N42V .
Key: 0.032

Exercise: Please report the recorded abundance fitness for W45I .
Key: -0.533

Exercise: Please report the recorded abundance fitness for L18H .
Key: -0.66

Exercise: Please report the recorded abundance fitness for H29S .
Key: -0.728

Exercise: Please report the recorded abundance fitness for T23C .
Key: -0.074

Exercise: Please report the recorded abundance fitness for M6T .
Key: 0.028

Exercise: Please report the recorded abundance fitness for R10W .
Key: 0.122

Exercise: Please report the recorded abundance fitness for H31I .
Key: -0.217

Exercise: Please report the recorded abundance fitness for E44W .
Key: -0.413

Exercise: Please report the recorded abundance fitness for H4T .
Key: -0.004

Exercise: Please report the recorded abundance fitness for R49L .
Key: -0.101

Exercise: Please report the recorded abundance fitness for C12L .
Key: -1.11

Exercise: Please report the recorded abundance fitness for L37S .
Key: -0.194

Exercise: Please report the recorded abundance fitness for P36V .
Key: -0.22

Exercise: Please report the recorded abundance fitness for L19P .
Key: -0.484

Exercise: Please report the recorded abundance fitness for G43Q .
Key: -0.032

Exercise: Please report the recorded abundance fitness for Y28A .
Key: -0.574

Exercise: Please report the recorded abundance fitness for C50H .
Key: -0.286

Exercise: Please report the recorded abundance fitness for C21P .
Key: -0.829

Exercise: Please report the recorded abundance fitness for H29V .
Key: -1.06

Exercise: Please report the recorded abundance fitness for E7P .
Key: -0.401

Exercise: Please report the recorded abundance fitness for N34A .
Key: -0.08

Exercise: Please report the recorded abundance fitness for H31F .
Key: 0.017

Exercise: Please report the recorded abundance fitness for G16Y .
Key: -0.83

Exercise: Please report the recorded abundance fitness for S27W .
Key: -0.198

Exercise: Please report the recorded abundance fitness for E7W .
Key: -0.599

Exercise: Please report the recorded abundance fitness for W45L .
Key: -0.591

Exercise: Please report the recorded abundance fitness for H31V .
Key: -0.068

Exercise: Please report the recorded abundance fitness for P36I .
Key: -0.195

Exercise: Please report the recorded abundance fitness for C52D .
Key: -0.218

Exercise: Please report the recorded abundance fitness for G43K .
Key: 0.03

Exercise: Please report the recorded abundance fitness for L18N .
Key: -0.489

Exercise: Please report the recorded abundance fitness for L33D .
Key: -0.561

Exercise: Please report the recorded abundance fitness for D14W .
Key: -0.418

Exercise: Please report the recorded abundance fitness for R10G .
Key: -0.349

Exercise: Please report the recorded abundance fitness for C24H .
Key: -0.909

Exercise: Please report the recorded abundance fitness for N42C .
Key: -0.061
